Entries and their viability, T/C
- Tested on: 349418-098-R tumor spheroid viability
- Assay Notes: Anticancer human tumor 349418-098-R patient-derived lung adenocarcinoma cell line growth inhibition
- Details: second compound 0.03 µM; first compound 1 µM; hits give low values; spheroids with HUVEC and MSC
The answer is to be given in %; state only the numeric part.

Sample answers from the record:
CC1COCCN1c1cc(-c2ccnn2C)c2ccnc(-c3ccn[nH]3)c2n1 (stereo unspecified) + CC[C@@]1(O)C(=O)OCc2c1cc1n(c2=O)Cc2cc3c(CN(C)C)c(O)ccc3nc2-1 :: 11.4
COc1ccc([C@@H](O)c2cc(-c3ncnc4cc(N5CCOCC5)ccc34)c(F)cc2Cl)nn1 + CC[C@@]1(O)C(=O)OCc2c1cc1n(c2=O)Cc2cc3c(CN(C)C)c(O)ccc3nc2-1 :: 43.9

Please state recorded viability, T/C (tested on 349418-098-R tumor spheroid viability) of Cc1cc(C)c(CNC(=O)c2cc(-c3ccc(CN4CCOCC4)cc3)cc3c2cnn3C2CCCC2)c(=O)[nH]1 + CC[C@@]1(O)C(=O)OCc2c1cc1n(c2=O)Cc2cc3c(CN(C)C)c(O)ccc3nc2-1;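 further: spheroids exposed to compound for 7 days before measurement; percent of vehicle control viability with 100% = DMSO-treated spheroids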
52.7

Please state recorded viability, T/C (tested on 349418-098-R tumor spheroid viability) of [2H]c1nc(C)nc([2H])c1-c1cc(NC[C@@H](C)c2cccc3c(C(=O)NC)ccnc23)ncn1 + CC[C@@]1(O)C(=O)OCc2c1cc1n(c2=O)Cc2cc3c(CN(C)C)c(O)ccc3nc2-1;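 further: spheroids exposed to compound for 7 days before measurement; percent of vehicle control viability with 100% = DMSO-treated spheroids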
71.1

Please state recorded viability, T/C (tested on 349418-098-R tumor spheroid viability) of CC(C)n1c(=O)n(C)c2cnc3cc(F)c(-c4ccc(OCCCN5CCCCC5)nc4)cc3c21 + CC[C@@]1(O)C(=O)OCc2c1cc1n(c2=O)Cc2cc3c(CN(C)C)c(O)ccc3nc2-1;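 further: spheroids exposed to compound for 7 days before measurement; percent of vehicle control viability with 100% = DMSO-treated spheroids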
22.7

Please state recorded viability, T/C (tested on 349418-098-R tumor spheroid viability) of COc1cc(C)[nH]c(=O)c1CN1CCc2c(Cl)cc(C(OC)C3COC3)c(Cl)c2C1=O (stereo unspecified) + CC[C@@]1(O)C(=O)OCc2c1cc1n(c2=O)Cc2cc3c(CN(C)C)c(O)ccc3nc2-1;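 further: spheroids exposed to compound for 7 days before measurement; percent of vehicle control viability with 100% = DMSO-treated spheroids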
71.8
